# target under test: endogenous BCL6 in OCI-Ly1 cells (Homo sapiens)
# experiment description: cell-based
# assay setup: OCI-Ly1, read-out: MSD degrader assay [OCI-LY1] Dmax individual replicates, single replicate values
Binary call on Dmax: Met from 80% upward, Not met beneath that.

hey, is Dmax for this one >= 80%? Cn1c(=O)c2c(c3cc(Nc4nc(N5CCC(F)(F)[C@@H](O)C5)ncc4Cl)ccc31)N[C@@H](C1CC1)C(F)(F)CO2 (single isomer, unassigned) [8a]
Not met

Quick check: does C[C@H]1C[C@H](O)CN(c2ncc(Cl)c(Nc3ccc4c(c3)c3c(c(=O)n4C)OCC(F)(F)[C@H](C4CC4)N3)n2)C1 [13b] have Dmax greater than or equal to 80%?
Not met

Test whether the molecule C[C@H]1CCCN(c2ncc(Cl)c(Nc3ccc4c(c3)c3c(c(=O)n4C)OCC(F)(F)[C@H](C4CC4)N3)n2)C1 [15a] records Dmax of 80% or higher.
Met

Reported Dmax reaches at least 80% for CC(=O)N[C@H]1C[C@@H](C)CN(c2ncc(Cl)c(Nc3ccc4c(c3)c3c(c(=O)n4C)OCC(F)(F)[C@H](C4CC4)N3)n2)C1 [10b] ?
Not met

Identify whether the reported Dmax of the following molecule is 80% or greater: C[C@@H]1C[C@@H](O)CN(c2ncc(Cl)c(Nc3ccc4c(c3)c3c(c(=O)n4C)OCC(F)(F)[C@H](C4CC4)N3)n2)C1 [13a]
Not met

Check the entry C[C@@H]1C[C@H](N(C)C)CN(c2ncc(Cl)c(Nc3ccc4c(c3)c3c(c(=O)n4C)OCC(F)(F)[C@H](C4CC4)N3)n2)C1 [11b] : does Dmax equal or exceed 80%?
Not met

Evaluate C[C@H]1C[C@@H](O)CN(c2ncc(Cl)c(Nc3ccc4c(c3)c3c(c(=O)n4C)OCC(F)(F)[C@H](C4CC4)N3)n2)C1 [12a CCT373566] : Dmax at minimum 80%?
Met

Reported Dmax reaches at least 80% for Cn1c(=O)c2c(c3cc(Nc4nc(N5CCC(F)(F)[C@H](O)C5)ncc4Cl)ccc31)N[C@@H](C1CC1)C(F)(F)CO2 (single isomer, unassigned) [8b] ?
Not met

Is reported Dmax greater than or equal to 80% here: Cn1c(=O)c2c(c3cc(Nc4nc(N5CCC[C@H](O)C5)ncc4Cl)ccc31)N[C@@H](C1CC1)C(F)(F)CO2 [14b]
Not met

Confirm if Dmax reported for the molecule Cn1c(=O)c2c(c3cc(Nc4nc(N5CCC[C@@H](O)C5)ncc4Cl)ccc31)N[C@@H](C1CC1)C(F)(F)CO2 [14a] is 80% or above.
Not met

Confirm if Dmax reported for the molecule C[C@@H]1CCCN(c2ncc(Cl)c(Nc3ccc4c(c3)c3c(c(=O)n4C)OCC(F)(F)[C@H](C4CC4)N3)n2)C1 [15b] is 80% or above.
Not met

Decide: is the reported value of Dmax for C[C@@H]1C[C@H](O)CN(c2ncc(Cl)c(Nc3ccc4c(c3)c3c(c(=O)n4C)OCC(F)(F)[C@H](C4CC4)N3)n2)C1 [12b CCT373567] equal to or greater than 80%?
Not met

###

# experiment description: in vitro
# Format: in vitro ADME
# assay setup: pH 7.4, 10 µM, 16 h at 30 °C
Give measured PAMPA (pH 7.4) for each item. Keep answers brief.
Provide only the numeric value, understood in ×10–6 cm s–1.

Quick one: PAMPA (pH 7.4) for `Cn1c(=O)c2c(c3cc(Nc4nc(N5CCC(F)(F)[C@@H](CO)C5)ncc4Cl)ccc31)N[C@@H](C1CC1)C(F)(F)CO2` ?
21

State the recorded PAMPA (pH 7.4) for this entry: C[C@H]1C[C@@H](O)CN(c2ncc(Cl)c(Nc3ccc4c(c3)c3c(c(=O)n4C)OCC(F)(F)[C@H](C4CC4)N3)n2)C1 [12a CCT373566]
24

Recorded PAMPA (pH 7.4) for C[C@@H]1C[C@H](O)CN(c2ncc(Cl)c(Nc3ccc4c(c3)c3c(c(=O)n4C)OCC(F)(F)[C@H](C4CC4)N3)n2)C1 [12b CCT373567] , please?
16

GET /values?readout=PAMPA (pH 7.4)&item= `C[C@@H]1CN(c2ncc(Cl)c(Nc3ccc4c(c3)n(CCC(C)(C)O)c(=O)n4C)n2)C[C@H](C)C1(F)F`
33
